Tested on: Mycobacterium tuberculosis
Experiment: Antimycobacterial activity against Mycobacterium tuberculosis H37Ra assessed as inhibition of microbial growth incubated for 6 days by MABA method
Type: functional
Conditions: 144 h
Listed here are compounds together with their documented MIC50.
Note: unit µg/mL is implicit; provide only the numeric part.

{"TEST SMILES": "O=c1[nH]c(=S)c(CO)cn1[C@@H]1O[C@H](CO)[C@@H](O)[C@@H]1O", "OBSERVED": 0.5}
{"TEST SMILES": "N[C@@H]1CONC1=O", "OBSERVED": 5}
{"TEST SMILES": "CCc1cn([C@@H]2O[C@H](CO)[C@@H](O)[C@@H]2F)c(=O)[nH]c1=S", "OBSERVED": 50}

Proceed to the following item.
Documented MIC50 of CCc1cn([C@@H]2O[C@H](CO)[C@@H](Br)[C@@H]2F)c(=O)[nH]c1=O : 5
